- assayTarget: Fuc(a1-2)Gal(b1-4)Glc6S
- measurementProtocol: glycan array binding signal (z-score within array); higher = stronger binding
- testContext: glycan notation: IUPAC condensed, linker removed
Shown is part of a subset that was picked to be rich in the strongest signals.
Tag: met if measured glycan array binding signal (z-score) is not below -0.2, not met if it is.

binder | assignedLabel
Gal 7 (Homo sapiens) (protein) MSNVPHKSSLPEGIRPGTVLRIRGLVPPNASRFHVNLLCGEEGGSDAALHFNPRLDTSEVVFNSKEGGSWGREERGPGVPFGRGQPFEVLIIASDDGFKAVVGDAQYHHFRHRLPLARVRLVEVGGDVQLDSVRIF | met
CLEC9a (Mus musculus), Q8BRU4 (protein) MHAEEIYTSLQWDIPTSEASQKCQSPSKCSGAWCVVTMISCVVCMGLLATSIFLGIKFFQVSSLVLEQQERLIQQDTALVNLTQWQRKYTLEYCQALLQRSLHSGSDCSPCPHNWIQNGKSCYYVFERWEMWNISKKSCLKEGASLFQIDSKEEMEFISSIGKLKGGNKYWVGVFQDGISGSWFWEDGSSPLSDLLPAERQRSAGQICGYLKDSTLISDKCDSWKYFICEKKAFGSCI | met
AMA (Arum maculatun) (protein) MAKLLLLLLLPAIVGLAVPRSAAAVGSNYMLSGETLNTDGRLTNGELTLIMQVDCNLVLYHGGWQSNTANNGRDCKLTLTDFGELVIKSGTGSTVWSSGSKQSMKGNYAAVVHPEGRLVIYGPSVFKINPSGAGLNGLPLRNIPLTNNMLFSGQVLYGDGTLSARNHKLVMQGDCNMVLYGGKYGWQSNTHGNGKYCFAMLTHKGELVIRDDDFKSVWSSKSSSKQGDYVFILQDDSLAIIYGPAVFSTGSKKMISMVTN | not met
PpFlo1 (Pichia pastoris) (protein) MGSSHHHHHHSSGLVPRGSHMQESGDGDISDSAYACDIDATRYDGFNATIYEFQPGDGRLTRDPVFMSTGYLNRTQLHSITGVTDPGFSIYTPGVPTTTLYGIPNVNWENLLLELKGYFRAEVSGDYGLSLRNIDDSAILFFGKETAFQCCNENSISNEASTDYSLFTIFRQEGDETTNLDSFTYTQYLEAGKYYPVRTFFVNIERHAVFNFTMTLPDGTELTDFHNYIYQFGALDEEQCQA | not met
Annexin-A1 (Mus musculus), P10107 (protein) MAMVSEFLKQARFLENQEQEYVQAVKSYKGGPGSAVSPYPSFNVSSDVAALHKAIMVKGVDEATIIDILTKRTNAQRQQIKAAYLQENGKPLDEVLRKALTGHLEEVVLAMLKTPAQFDADELRGAMKGLGTDEDTLIEILTTRSNEQIREINRVYREELKRDLAKDITSDTSGDFRKALLALAKGDRCQDLSVNQDLADTDARALYEAGERRKGTDVNVFTTILTSRSFPHLRRVFQNYGKYSQHDMNKALDLELKGDIEKCLTTIVKCATSTPAFFAEKLYEAMKGAGTRHKALIRIMVSRSEIDMNEIKVFYQKKYGISLCQAILDETKGDYEKILVALCGGN | met
Gal 8 (Homo sapiens), O00214 (protein) MMLSLNNLQNIIYNPVIPFVGTIPDQLDPGTLIVIRGHVPSDADRFQVDLQNGSSMKPRADVAFHFNPRFKRAGCIVCNTLINEKWGREEITYDTPFKREKSFEIVIMVKDKFQVAVNGKHTLLYGHRIGPEKIDTLGIYGKVNIHSIGFSFSSDLQSTQASSLELTEISRENVPKSGTPQLPSNRGGDISKIAPRTVYTKSKDSTVNHTLTCTKIPPMNYVSKRLPFAARLNTPMGPGRTVVVKGEVNANAKSFNVDLLAGKSKDIALHLNPRLNIKAFVRNSFLQESWGEEERNITSFPFSPGMYFEMIIYCDVREFKVAVNGVHSLEYKHRFKELSSIDTLEINGDIHLLEVRSW | met
MFG-E8 (Homo sapiens), Q08431 (protein) MPRPRLLAALCGALLCAPSLLVALDICSKNPCHNGGLCEEISQEVRGDVFPSYTCTCLKGYAGNHCETKCVEPLGLENGNIANSQIAASSVRVTFLGLQHWVPELARLNRAGMVNAWTPSSNDDNPWIQVNLLRRMWVTGVVTQGASRLASHEYLKAFKVAYSLNGHEFDFIHDVNKKHKEFVGNWNKNAVHVNLFETPVEAQYVRLYPTSCHTACTLRFELLGCELNGCANPLGLKNNSIPDKQITASSSYKTWGLHLFSWNPSYARLDKQGNFNAWVAGSYGNDQWLQVDLGSSKEVTGIITQGARNFGSVQFVASYKVAYSNDSANWTEYQDPRTGSSKIFPGNWDNHSHKKNLFETPILARYVRILPVAWHNRIALRLELLGC | not met

Here's the next entry for you.
Is glycan array binding signal (z-score) for MVL (Microcystis viridis), Q9RHG4 (protein) MASYKVNIPAGPLWSNAEAQQVGPKIAAAHQGNFTGQWTTVVESAMSVVEVELQVENTGIHEFKTDVLAGPLWSNDEAQKLGPQIAASYGAEFTGQWRTIVEGVMSVIQIKYTF at or above -0.2?
not met
